For each entry below, report its normalized growth value.
experiment: chemical genetic growth profiling, strain panel (AID 1159580);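 note: tested at 20 µM; growth read once vehicle control cultures reached saturation at 30 °C; 1 = growth at the plate median or of vehicle wells; lower values mean less growth of the strain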; settings: S. cerevisiae deletion strains, growth OD, locus YEL037C, strain rad23, stronger effect = lower value
Out of some 5,500 compounds screened, about 2,000 (36%) were called active. Roughly 18% stayed inconclusive and do not appear here. The list shows a part of the results.
Respond numerically, and do not add a unit to the figure.

Return reported normalized growth; argument: COc1ccc2c(c1)OC1(O)COc3cc(OC)c(OC)cc3C1=C2 (stereo unspecified)
0.99

Look up normalized growth: COc1ccc(C(CN(C)C)C2(O)CCCCC2)cc1 (stereo unspecified)
0.974

Suppose we examine the molecule CC1CCc2cc(F)cc3c(=O)c(C(=O)O)cn1c23 (stereo unspecified) ; what normalized growth value has been reported?
0.993

Recorded normalized growth of `COc1ccc2c(c1)OC/C(=C/c1ccc(OC)c(OC)c1)C2=O` , please.
0.984

Entry `Clc1ccc(C(c2ccc(Cl)cc2)C(Cl)(Cl)Cl)cc1` : reported normalized growth = ?
1.01

normalized growth lookup needed for C[C@]12CCC(=O)C=C1C=CC1C2CC[C@@]2(C)C1CC[C@@]21CCC(=O)O1 (stereo partly specified) , thanks.
0.971

I am curious: what normalized growth value has been reported for `O=C(O)c1cc2cc(F)ccc2[nH]1` ?
0.981

Item `COC(=O)c1cc(=O)c(O)c2c(O)c(O)ccc2c1` has what recorded normalized growth?
0.997

Please look up its normalized growth: `Cc1ccc(C(=O)Nc2ccc(S(=O)(=O)O)c3cc(S(=O)(=O)O)cc(S(=O)(=O)O)c23)cc1NC(=O)c1cccc(NC(=O)Nc2cccc(C(=O)Nc3cc(C(=O)Nc4ccc(S(=O)(=O)O)c5cc(S(=O)(=O)O)cc(S(=O)(=O)O)c45)ccc3C)c2)c1`
1.01

Recorded normalized growth for CCN1CCCC(OC(=O)C(c2ccccc2)c2ccccc2)C1 (stereo unspecified) , please?
0.978

Quick check: normalized growth of `CCCc1cc(C(N)=S)ccn1` ?
0.964

normalized growth lookup needed for COc1ccc(C2CNC(=O)C2)cc1OC1CCCC1 (stereo unspecified) , thanks.
0.965

What value of normalized growth has been recorded for this entry: `COc1ccc(C(=O)O)cc1OC`
0.989

What value of normalized growth has been reported for the following molecule? C[C@]12CCC(=O)C=C1C=CC1C2CC[C@@]2(C)C1CC[C@@]2(O)CCC(=O)O (stereo partly specified)
1.04

What normalized growth value was documented for this molecule, `O=C1C(Cl)=C(Cl)C(=O)C(Cl)=C1Cl` ?
0.99

// returns reported normalized growth for input CC[C@@H](C(=O)C(C)[C@@H](O)[C@H](C)CCc1ccc(C)c(O)c1C(=O)O)C1OC(CC)(C2CC[C@](O)(CC)[C@H](C)O2)C[C@@H]1C (stereo partly specified)
1.07

Quick check: normalized growth of `O=c1cccc2ccc(O)c(O)c2c1O` ?
0.938

Requested field: normalized growth. Item: `CC[C@@]1(O)C[C@H](O[C@H]2C[C@H](N(C)C)[C@H](O)[C@H](C)O2)c2c(cc3c(c2O)C(=O)c2c(O)ccc(O)c2C3=O)[C@H]1C(=O)OC`
0.874

Sample `Nc1ncn[nH]1` — what was its normalized growth?
1.02

Quick one: normalized growth of `CC(=O)Oc1cc(OC(C)=O)c2c(c1)O[C@H](c1ccc(OC(C)=O)c(OC(C)=O)c1)[C@H](OC(C)=O)C2` ?
1

Need normalized growth of `CC1(C)S[C@@H]2[C@H](NC(=O)[C@H](N)c3ccccc3)C(=O)N2[C@H]1C(=O)O` , thanks.
0.979
